# TGT: CSNK1A1 (human) (UniProt P48729)
# Sequence (P48729 whole entry, looked up): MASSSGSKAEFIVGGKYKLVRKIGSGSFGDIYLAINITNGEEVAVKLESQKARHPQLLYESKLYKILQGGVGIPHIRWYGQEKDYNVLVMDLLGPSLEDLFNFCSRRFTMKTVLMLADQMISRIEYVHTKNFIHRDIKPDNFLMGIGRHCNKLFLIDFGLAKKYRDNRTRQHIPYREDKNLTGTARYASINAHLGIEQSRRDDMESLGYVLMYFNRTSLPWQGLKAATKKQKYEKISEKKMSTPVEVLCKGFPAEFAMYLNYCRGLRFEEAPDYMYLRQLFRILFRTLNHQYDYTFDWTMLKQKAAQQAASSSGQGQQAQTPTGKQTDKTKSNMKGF
# PROTOCOL DETAILS: radiometric filter-binding kinase assay, Kinase HotSpot
# REPORTED CONDITIONS: compound 0.5 µM; ATP 10 µM
// reported residual activity for each item listed
Form entry: value (%) — number only.

Would you please look over these solved cases?
{"STRUCTURE NOTATION": "COc1cc2ncnc(Nc3ccc(F)c(Cl)c3)c2cc1OCCCN1CCOCC1", "MEASURE UNIT": "%", "OBS VALUE": 98.6}
{"STRUCTURE NOTATION": "COc1cc2nccc(Oc3ccc(NC(=S)NC(=O)c4ccccc4C)cc3)c2cc1OC", "MEASURE UNIT": "%", "OBS VALUE": 96.3}
{"STRUCTURE NOTATION": "Oc1ccc(-c2nc(-c3ccc(F)cc3)c(-c3ccncc3)[nH]2)cc1", "MEASURE UNIT": "%", "OBS VALUE": 62.3}
{"STRUCTURE NOTATION": "CC(C)(C)c1nc2c3ccc(F)cc3c3c(=O)[nH]ccc3c2[nH]1", "MEASURE UNIT": "%", "OBS VALUE": 94.6}
{"STRUCTURE NOTATION": "CCCNC(=O)Nc1ccc(Oc2ncnc3cc(OC)c(OC)cc23)cc1Cl", "MEASURE UNIT": "%", "OBS VALUE": 98.9}

Look up residual activity for this molecule: O=C1Cc2c([nH]c3ccc([N+](=O)[O-])cc23)-c2ccccc2N1
103

Look up residual activity for this molecule: Nc1n[nH]c2nnc(-c3c(-c4ccccc4)nn4ccccc34)cc12
100

Look up residual activity for this molecule: Cc1ccc(NC(=O)c2ccc(CN3CCN(C)CC3)cc2)cc1Nc1nc(-c2cccnc2)cs1
98.5
